# tested target: SfurOBP2 (Sogatella furcifera)
# Sequence (V5T759 entry or part of it): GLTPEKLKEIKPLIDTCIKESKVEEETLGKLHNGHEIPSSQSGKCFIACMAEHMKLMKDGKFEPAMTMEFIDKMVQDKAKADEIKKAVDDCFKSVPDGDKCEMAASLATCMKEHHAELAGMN
# test protocol: biochemical
# Type: binding
# measurement parameters: ligand concentration 10 (unit not given), replicate column 3 of 3
observation type: Fluorescence competitive binding assay, OBP2 (raw fluorescence reading)

compound | readout number
CCCCCCCCC=O | 20059
Cc1cc(C(C)(C)C)c(O)c(C(C)(C)C)c1 | 15652
CCCCCCCCCCC | 14077
O=C(c1ccccc1)c1ccccc1 | 15134
CC(C)COC(=O)CCCCC(=O)OCC(C)C [DA(diisobutyl adipate)] | 16366
CC1=CC[C@@H](C(C)(C)O)CC1 | 17367
CCCCCCCC=O | 18628
C=CC(C)(O)CCC=C(C)C (centres unmarked) | 17034
c1ccc2ccccc2c1 | 20233
CC(=O)c1ccccc1 | 17356
O=Cc1ccccc1 | 14101
CCCCCCCCCCCCCCCC(=O)OC [MH(methyl hexadecanoate)] | 31312
C/C(=C\CO)CCC[C@H](C)CCC[C@H](C)CCCC(C)C | 18765
CCCCCCCC | 15010
CCCCCCCCCCCCC=O | 17695
C=C/C(C)=C/C/C=C(\C)CCC=C(C)C | 19226
CCCCCCCCCCCCO | 15218
CC(=O)/C=C/C1=C(C)CCCC1(C)C | 15901
CCCCCCCCCCCCCCCCCC | 20461
CCCCCCC=CCO | 20778
CCC/C=C/CO [(E)-2-hexenol] | 15159
C=C(C)C1CC=C(C)CC1 (single isomer, unassigned; (+)) [(+)-limonene] | 16675
CCCCCC=O | 18120
CCCCCCCCCCCCCC | 21164
OC1CCCCC1 | 17116
Cc1ccc(C(C)C)cc1 | 16673
